Provenance of the data: patent US20200223906A1

- tgt: RSV F protein of subtype A (strain A2) on recombinant mKate-RSV virus (Respiratory syncytial virus subtype A …, UniProt P03420 26-574)
- protocolText: cell-based or functional assay
Hi all, reminder that labels come from Neut IC50 (µg/ml) subtype A, split as lower band (below 0.03 µg/mL), central band (0.03 µg/mL to below 1 µg/mL), upper band (1 µg/mL or more)

Consider the worked cases shown below.
ADI-18928 (antibody, V domains shown, full-length IgG from yeast) VH: QVQLVQSGAEVKRPGSSVRVSCKASGGTFRKYAISWVRQARGQGLEWMGGIIPMSGPPSYAQKFQGRVTITADESTSTVYMELSSLRFEDTAVYFCARDIEWFVLMDPITSYYPMDVWGQGTTVTVSS VL: QSVVTQEPSLTVSPGGTVTLTCGSSTGGVTSGHHTYWFQQKPGQAPRTLIYDTTNTHSWTPARFAGSLLGGKAALTLSGAQPEDEADYYCLLSYSGARPVFGGGTKLTVL
central band
ADI-18949 (antibody, V domains shown, full-length IgG from yeast) VH: QVQLVQSGAEVKKPGASVKVSCKTSGYTFSNYGISWLRQAPGQGLEWMAWISPYNGNTKSAQRFQGRVIMTTDTSTRTAHMEVKSLRTDDTATYYCARDPAVDAIPMLDYWGQGTMVTVSS VL: EIVLTQSPLSLPVTLGQPASISCRSSQSLVYTDGNTYLSWFQQRPGQSPRRLIYRVSHRDSGVPDRFTGSGSGTDFTLIIRRVEAEDVGVYYCMQGTHWPLTFGGGTKVEIK
central band
ADI-18972 (antibody, V domains shown, full-length IgG from yeast; also called Antibody Number 320; Ab # 320) VH: QVQLVQSGAEVKKPGASVKVSCKTSGYTFSNYGISWLRQAPGQGLEWMAWISPYNGNTKSAQRFQGRVIMTTDTSTRTAHMEVKSLRTDDTATYYCARDPAVDAIPMLDYWGQGTLVTVSS VL: DIQMTQSPLSLPVTLGQPASISCRSSQSLVYTDGNTYLSWFQQRPGQSPRRLIYRVSHRDSGVPDRFTGSGSGTDFTLIIRRVEAEDVGVYYCMQGTHWPLTFGGGTKLEIK
lower band
ADI-18940 (antibody, V domains shown, full-length IgG from yeast) VH: QVQLVQSGAGVKKPGASVRVSCTASGYTFTDYFINWVRQAPGGGLEWMGWVNPLSGATRYAQNFAGRVTMTTDTSITTGYLDLRNLRLDDTAVYFCASQSSPYTPGAMDVWGQGTTVTVSS VL: DIVMTQSPSSLSASVGDRVSITCRTSQTISGYISWYQKKPGKAPKLLIYAASNMYSGVPSRFSGSESGTDFTLTITSLQPEDFATYFCQLNSGALFTFGPGTKVDIK
lower band
ADI-18907 (antibody, V domains shown, full-length IgG from yeast; also called Antibody Number 262; Ab # 262) VH: QVQLVQSGPEVKKPGSSVKVSCKASGGTFSSYAITWVRQAPGQGLEWMGGIIPSFDRVDYSRNFKGRVTFTADKSANTAYMELTNVRSDDTAVYYCARGCCGAVAGFQHWGQGTGVTVSS VL: DIVLTQTPATLSLSPGETATLSCRASQSVTTYLAWYQQKPGQAPRLLIYDASNRATGVPTRFSGSGSGTDFTLTISSLEPEDYAIYYCQQRTTGVTFGGGTKVEIK
upper band
ADI-18967 (antibody, V domains shown, full-length IgG from yeast; also called Antibody Number 315; Ab # 315) VH: QVQLVQSGAEVKKPGASVKVACKVSGSSLTELSIQWVRLPPGKRLEWLGAFDAEDGAPIYSPKFQGRVTMTEDRSTETAYMEVTSLRSEDTALYYCATPLPAGALDKWGQGTLVTVSS VL: DIQMTQSPSSLSASVGDRVTISCRASQTISRYLNWYQVKPGTAPKLLIYAASSLQTGVPSRFSASGSGADFTLTISSLQPEDFATYHCQQTYIIPYTFGQGTKVDIK
upper band
ADI-18930 (antibody, V domains shown, full-length IgG from yeast) VH: QVQLVQSGAEVKKPGSSVKVSCKASGGTFSGYHISWVRQAPGQGLEWMGGIIHLFGTVNYAPKFQGRVTITADASTGTAYMELNSLMSEDTAVYYCARDAYEVWTGSYLPPFDYWGQGTLVTVSS VL: EIVLTQSPGTLSLSPGERVTLSCRASQTVTSSYLAWYQQKPGQAPRLLIYGAFTRATDIPDRFSGSGSGTDFTLTISRLEPEDSAVYYCQQYGSSFLTFGGGTKVDIK
lower band
ADI-18958 (antibody, V domains shown, full-length IgG from yeast) VH: QVQLQESGAEVKMRGASVKVSCKASGYTFSHYGISWVRQAPGQGLEWMGFISAYNHNTKYAQTVQGRVTLSTDTSTSTAYMELRSLRPDDTAMYYCAREPPSDDAARLFDYWGQGTLVTVSS VL: ETTLTQSPRSLPVTLGQPASISCRSSQSLVYSEGNTYLSWFQQRPGQSPRRLIYKVSNRDSGVPDRFSGSGSGTDFTLKISRVEAEDVGVYYCMQGTQWPVTFGQGTKVEIK
central band

Hi, small favor: classify ADI-18947 (antibody, V domains shown, full-length IgG from yeast) VH: QVQLVQSGGGVVQSGRSLRLSCAASGFTFSDNGMHWVRQAPGKGLEWVAGIFHDGSNKQYAESVKGRFIISRDNSKNTLYLQMNSLRAEDTALYFCARAPYDIWSGYCLDYWGQGTLVTVSS VL: DIRMTQSPATLSLSPGESATLSCRASQSVINNLAWYQQRPGQAPRLLIYGASTRATGIPARFSGSGSETEFTLTISSLQSEDFAVYHCQQYSIWPQTFGQGTKLEIK by its Neut IC50 (µg/ml) subtype A when you get a moment. upper band

Another: ADI-18887 (antibody, V domains shown, full-length IgG from yeast; also called Antibody Number 242; Ab # 242) VH: QVQLVQSGAEVKRPGSSVKVSCKASGGTFSSYALSWVRQAPGQGLEWIGGIIPMHRVTNYAQKFRGRVTISADTSTSTAYLEVNSLRVEDTAMYYCARVFFGTCGGASCFPSDLWGQGTLVTVSS VL: EIVLTQSPSFVSASVGDGVTITCRASQAISSYLAWYQQKPGQAPKLLIYAASTLQGGVPSRFSGSGSGTHFTLTISSLQPEDFATYYCQQLHSDFQTFGPGTKVEIK upper band
